molecular target: CD47, human, endogenous on cells (human, UniProt Q08722 19-323); assay: cell-based or functional assay
Ends that are not written are not given here. * marks the point of attachment. Biotin = O=C1N[C@H]2[C@H](CS[C@H]2CCCCC(=O)*)N1
measured-parameter: cGMP signaling IC50**

binder	reported-result
AGWKDFTAYR [peptide 37416 (AGWKDFTAYR)]	~1000 nM

Query: For IGWKDYTAYR [peptide 37298 (IGWKDYTAYR)] , what is its reported cGMP signaling IC50**?
Response: ~100 nM

Query: Next binder up: IGWKDFTAAR [peptide 37555 (IGWKDFTAAR)]
Response: ~10000 nM

Query: And what about the binder HIGWKDFTAYRWRLS [peptide C6b (HIGWKDFTAYRWRLS)] ?
Response: ~100 nM

Query: Request: Biotin-IGWKDFTAYR [peptide C6d (biotin-IGWKDFTAYR)]
Response: ~100 nM

Query: Query IGWKEFTAYR [peptide 37415 (IGWKEFTAYR)] next
Response: 1000 nM

Query: Follow-up item: IGWADFTAYR [peptide 37413]
Response: > 10000 nM

Query: Same question for IGYKDFTAYR [peptide 37417 (IGYKDFTAYR)] please.
Response: ~100 nM
